Test system: SKBR3 cells
Assay: SKBR3 Cell Viability Assay (CellTiter Glo)
Assay type: cell-based
Conditions: 72 hours, CellTiter Glo luminescence, read-out: MCL-1 CV SKBR3 EC50
MEASUREMENT TYPE: EC50 (µM)

• COc1cn(C)nc1C(=O)O[C@H]1/C=C/[C@H](OC)[C@@H]2CC[C@H]2CN2C[C@@]3(CCCc4cc(Cl)ccc43)COc3ccc(cc32)C(=O)N=[S@](=O)(NC(=O)c2cn(C)nc2OC)CC1 = 4.56
• CO[C@H]1/C=C/C[C@H](C)C[S@@](=O)(NC(=O)N[C@@H]2C[C@H]2OC)=NC(=O)c2ccc3c(c2)N(C[C@@H]2CC[C@H]21)C[C@@]1(CCCc2cc(Cl)ccc21)CO3 (single isomer, unassigned) = 0.0992

###

Molecular target: MCL-1/Bim interaction (recombinant human MCL-1 protein, residues 171-327; biotinylated human Bim peptide, residues 51-76) (Homo sapiens (Human))
Experiment: MCL-1/Bim Binding AlphaLISA Assay
Conditions: 0.0625 nM 6xHis-Mcl-1 (171-327), 0.0625 nM biotinylated-Bim peptide
MEASUREMENT TYPE: IC50 (nM)

• CO[C@H]1/C=C/CCC[S@@](=O)(NC(=O)C2CC2)=NC(=O)c2ccc3c(c2)N(C[C@@H]2CC[C@H]21)C[C@@]1(CCCc2cc(Cl)ccc21)CO3 [Example 27] = 1.6
• COCCn1cc(C(=O)N[S@@]2(=O)=NC(=O)c3ccc4c(c3)N(C[C@@H]3CC[C@H]3[C@@H](OC)/C=C/C[C@H](C)C2)C[C@@]2(CCCc3cc(Cl)ccc32)CO4)cn1 [Example 120] = 0.167
• COC[C@H]1C[C@H](NC(=O)N[S@@]2(=O)=NC(=O)c3ccc4c(c3)N(C[C@@H]3CC[C@H]3[C@@H](OC)/C=C/C[C@H](C)C2)C[C@@]2(CCCc3cc(Cl)ccc32)CO4)C1 [Example 200] = 0.064
• CO[C@H]1/C=C/C[C@H](C)C[S@@](=O)(NC(=O)N[C@H]2C[C@@H]2c2cnn(C)c2)=NC(=O)c2ccc3c(c2)N(C[C@@H]2CC[C@H]21)C[C@@]1(CCCc2cc(Cl)ccc21)CO3 (single isomer, unassigned) [Example 184] = 0.108
• CO[C@H]1/C=C/C[C@H](C)C[S@@](=O)(NC(=O)c2cc(C)co2)=NC(=O)c2ccc3c(c2)N(C[C@@H]2CC[C@H]21)C[C@@]1(CCCc2cc(Cl)ccc21)CO3 [Example 203] = 0.073

###

Item-by-item account of IC50
Target: MCL-1/Bim interaction (recombinant human MCL-1 protein, residues 171-327; biotinylated human Bim peptide, residues 51-76) (Homo sapiens (Human), UniProt Q07820)
Sequence (Q07820 171-327): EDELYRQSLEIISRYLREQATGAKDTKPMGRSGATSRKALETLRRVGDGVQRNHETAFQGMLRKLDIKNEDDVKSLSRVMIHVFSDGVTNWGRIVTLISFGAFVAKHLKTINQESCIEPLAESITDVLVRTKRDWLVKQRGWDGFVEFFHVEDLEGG
Experiment: MCL-1/Bim Binding AlphaLISA Assay
Settings: 0.0625 nM 6xHis-Mcl-1 (171-327), 0.0625 nM biotinylated-Bim peptide
Procedure: MCL-1/Bim Binding AlphaLISA Assay. Inhibition of the MCL-1 and Bim interaction was measured in the following AlphaLISA assay. Recombinant human MCL-1 protein (C-terminal 6×His Tagged Mcl-1 containing residues 171-327) was generated at Gilead Sciences, Inc. (Foster City, Calif.). […] The AlphaLISA assay was performed in a 384-well Proxiplate in a total volume of 40 μL. […] The reaction plates were then read on an Envision multimode reader (PerkinElmer) using AlphaScreen settings. […]
MEASUREMENT TYPE: IC50 (nM)

• CO[C@H]1/C=C/C[C@H](C)C[S@@](=O)(NC(=O)N2CCn3cccc3C2)=NC(=O)c2ccc3c(c2)N(C[C@@H]2CC[C@H]21)C[C@@]1(CCCc2cc(Cl)ccc21)CO3 = 0.085
• CO[C@H]1/C=C/C[C@H](C)C[S@@](=O)(NC(=O)N[C@H]2C[C@@H]2C)=NC(=O)c2ccc3c(c2)N(C[C@@H]2CC[C@H]21)C[C@@]1(CCCc2cc(Cl)ccc21)CO3 = 0.113
• CO[C@H]1/C=C/C[C@H](C)[C@@H](C)[S@@](=O)(NC(=O)c2cc3n(c2)CCOC3)=NC(=O)c2ccc3c(c2)N(C[C@@H]2CC[C@H]21)C[C@@]1(CCCc2cc(Cl)ccc21)CO3 = 0.491
• COc1cn(C)cc1C(=O)N[S@@]1(=O)=NC(=O)c2ccc3c(c2)N(C[C@@H]2CC[C@H]2[C@@H](O)/C=C/C[C@H](C)[C@H]1C)C[C@@]1(CCCc2cc(Cl)ccc21)CO3 = 0.038
• CO[C@H]1/C=C/C[C@H](C)C[S@@](=O)(NC(=O)N[C@@H]2C[C@H]2C)=NC(=O)c2ccc3c(c2)N(C[C@@H]2CC[C@H]21)C[C@@]1(CCCc2cc(Cl)ccc21)CO3 = 0.133

###

Biological target: MCL-1/Bim interaction (recombinant human MCL-1 protein, residues 171-327; biotinylated human Bim peptide, residues 51-76) (Homo sapiens (Human))
Experiment: MCL-1/Bim Binding AlphaLISA Assay
Conditions: 0.0625 nM 6xHis-Mcl-1 (171-327), 0.0625 nM biotinylated-Bim peptide
Item-by-item account of IC50
MEASUREMENT TYPE: IC50 (pM)

• CO[C@H]1/C=C/CCC[S@@](=O)(NC(=O)CCn2cc(C)cn2)=NC(=O)c2ccc3c(c2)N(C[C@@H]2CC[C@H]21)C[C@@]1(CCCc2cc(Cl)ccc21)CO3 = 100
• CNc1nn(C)cc1C(=O)N[S@@]1(=O)=NC(=O)c2ccc3c(c2)N(C[C@@H]2CC[C@H]2[C@@H](OC)/C=C/C[C@H](C)C1)C[C@@]1(CCCc2cc(Cl)ccc21)CO3 = 40
• COc1ncc(C(=O)N[S@@]2(=O)=NC(=O)c3ccc4c(c3)N(C[C@@H]3CC[C@H]3[C@@H](OC)/C=C/C[C@H](C)C2)C[C@@]2(CCCc3cc(Cl)ccc32)CO4)cn1 = 77
• CO[C@H]1/C=C/C[C@H](C)C[S@@](=O)(NC(=O)NC2CC2)=NC(=O)c2ccc3c(c2)N(C[C@@H]2CC[C@H]21)C[C@@]1(CCCc2cc(Cl)ccc21)CO3 = 50
• CO[C@H]1/C=C/C[C@H](C)[C@@H](C)[S@@](=O)(NC(=O)[C@H]2C[C@@](C)(O)C2)=NC(=O)c2ccc3c(c2)N(C[C@@H]2CC[C@H]21)C[C@@]1(CCCc2cc(Cl)ccc21)CO3 = 67
• CO[C@H]1/C=C/C[C@H](C)C[S@@](=O)(NC(=O)N[C@@H]2CC2(F)F)=NC(=O)c2ccc3c(c2)N(C[C@@H]2CC[C@H]21)C[C@@]1(CCCc2cc(Cl)ccc21)CO3 = 51
• CO[C@H]1/C=C/CCC[S@@](=O)(NC(=O)CCn2nccc2C)=NC(=O)c2ccc3c(c2)N(C[C@@H]2CC[C@H]21)C[C@@]1(CCCc2cc(Cl)ccc21)CO3 = 600
• COCCO[C@H]1/C=C/[C@H](OC)[C@@H]2CC[C@H]2CN2C[C@@]3(CCCc4cc(Cl)ccc43)COc3ccc(cc32)C(=O)N=[S@](=O)(NC(=O)c2cn(C)nc2OC)C[C@H]1C = 39
• COC1CCN(C2CN(C(=O)N[S@@]3(=O)=NC(=O)c4ccc5c(c4)N(C[C@@H]4CC[C@H]4[C@@H](OC)/C=C/C[C@H](C)C3)C[C@@]3(CCCc4cc(Cl)ccc43)CO5)C2)CC1 = 29
• CCN(CC)C(=O)OC1CN(C(=O)N[S@@]2(=O)=NC(=O)c3ccc4c(c3)N(C[C@@H]3CC[C@H]3[C@@H](OC)/C=C/C[C@H](C)C2)C[C@@]2(CCCc3cc(Cl)ccc32)CO4)C1 = 95

###

Test system: SKBR3 cells
Assay: SKBR3 Cell Viability Assay (CellTiter Glo)
Assay type: cell-based
Settings: 72 hours, CellTiter Glo luminescence, read-out: MCL-1 CV SKBR3 EC50
Item-by-item account of EC50
MEASUREMENT TYPE: EC50 (µM)

• CCC(=O)N[S@@]1(=O)=NC(=O)c2ccc3c(c2)N(C[C@@H]2CC[C@H]2[C@@H](OC)CCCCC1)C[C@@]1(CCCc2ccccc21)CO3 = 10
• CO[C@H]1/C=C/CCC[S@@](N)(=O)=NC(=O)c2ccc3c(c2)N(C[C@@H]2CC[C@H]21)C[C@@]1(CCCc2cc(Cl)ccc21)CO3 = 10
• CO[C@H]1/C=C/C[C@H](C)[C@@H](C)S(=O)(=O)NC(=O)c2ccc3c(c2)N(C[C@@H]2CC[C@H]21)C[C@@]1(CCCc2cc(Cl)ccc21)CO3 [Comparative Example 1, reference compound] = 2.19
• CCC(=O)N[S@@]1(=O)=NC(=O)c2ccc3c(c2)N(C[C@@H]2CC[C@H]2[C@@H](OC)CCCCC1)C[C@@]1(CCCc2cc(Cl)ccc21)CO3 [Example 12] = 4.46
• CC[C@@H]1CC/C=C/[C@H](OC)[C@@H]2CC[C@H]2CN2C[C@@]3(CCCc4cc(Cl)ccc43)COc3ccc(cc32)C(=O)N=S1(=O)NC(=O)CCc1ccnn1C (single isomer, unassigned) = 1.39
• CO[C@H]1/C=C/CCC[S@](=O)(NC(=O)[C@@H]2C[C@H]2c2ccnn2C)=NC(=O)c2ccc3c(c2)N(C[C@@H]2CC[C@H]21)C[C@@]1(CCCc2cc(Cl)ccc21)CO3 = 0.783
• CO[C@H]1/C=C/C[C@H](C)[C@@H](C)[S@@](=O)(NC(=O)CCc2ccnn2C)=NC(=O)c2ccc3c(c2)N(C[C@@H]2CC[C@H]21)C[C@@]1(CCCc2cc(Cl)ccc21)CO3 = 0.207
• CCC(=O)N[S@]1(=O)=NC(=O)c2ccc3c(c2)N(C[C@@H]2CC[C@H]2[C@@H](OC)/C=C/CCCC1)C[C@@]1(CCCc2cc(Cl)ccc21)CO3 = 7.8
• CO[C@H]1/C=C/C[C@H](C)C[S@@](=O)(NC(=O)NC2CC2CC(F)F)=NC(=O)c2ccc3c(c2)N(C[C@@H]2CC[C@H]21)C[C@@]1(CCCc2cc(Cl)ccc21)CO3 (single isomer, unassigned) = 0.0287
• CCC(=O)N[S@@]1(=O)=NC(=O)c2ccc3c(c2)N(C[C@@H]2CC[C@H]2[C@@H](OC)CCCCC1)C[C@@]1(CCCc2cc(Cl)ccc21)CO3 [Example 11] = 10
